- system-under-test: Gastrin-releasing peptide receptor (Rattus norvegicus)
- Sequence (P52500 whole entry): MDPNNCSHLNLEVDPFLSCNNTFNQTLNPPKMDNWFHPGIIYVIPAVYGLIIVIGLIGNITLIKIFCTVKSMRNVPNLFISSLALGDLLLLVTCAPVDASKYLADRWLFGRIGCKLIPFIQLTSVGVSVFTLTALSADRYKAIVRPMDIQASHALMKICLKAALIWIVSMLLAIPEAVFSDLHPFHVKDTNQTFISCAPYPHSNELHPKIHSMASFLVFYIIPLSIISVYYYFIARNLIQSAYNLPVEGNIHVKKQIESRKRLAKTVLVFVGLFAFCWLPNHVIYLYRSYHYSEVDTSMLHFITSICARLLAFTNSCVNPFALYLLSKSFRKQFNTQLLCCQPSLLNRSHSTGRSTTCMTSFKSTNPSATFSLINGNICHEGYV
- test-description: In vitro binding affinity of [111In]DTPA-[Y4]-bombesin to bombesin receptor in the rat pancreatic acinar cell line, AR42J
measure-name: IC50 (nM)
Provide only the numeric value, understood in nM.

CSCC[C@H](NC(=O)[C@H](CC(C)C)NC(=O)[C@H](Cc1c[nH]cn1)NC(=O)CNC(=O)[C@@H](NC(=O)[C@H](C)NC(=O)[C@H](Cc1c[nH]c2ccccc12)NC(=O)[C@H](CCC(N)=O)NC(=O)CNC(=O)[C@H](CO)NC(=O)CNC(=O)[C@H](CCCCN)NC(=S)Nc1ccc2c(c1)C(=O)OC21c2ccc(O)cc2Oc2cc(O)ccc21)C(C)C)C(N)=O :: 15.6
CSCC[C@H](NC(=O)[C@H](CC(C)C)NC(=O)[C@H](Cc1c[nH]cn1)NC(=O)CNC(=O)[C@@H](NC(=O)[C@H](C)NC(=O)[C@H](Cc1c[nH]c2ccccc12)NC(=O)[C@H](CCC(N)=O)NC(=O)[C@H](CCCCNC(=O)CN(CCN(CCN(CC(=O)O)CC(=O)O)CC(=O)O)CC(=O)O)NC(=O)CN(CCN(CCN(CC(=O)O)CC(=O)O)CC(=O)O)CC(=O)O)C(C)C)C(N)=O :: 240

The recorded IC50 for `CSCC[C@H](NC(=O)[C@H](CC(C)C)NC(=O)[C@H](Cc1c[nH]cn1)NC(=O)CNC(=O)[C@@H](NC(=O)[C@H](C)NC(=O)[C@H](Cc1c[nH]c2ccccc12)NC(=O)[C@H](CCC(N)=O)NC(=O)CNC(=O)[C@H](CO)NC(=O)CNC(=O)[C@@H](N)CCCCN)C(C)C)C(N)=O` is 4.8

* * *

- system-under-test: Gastrin-releasing peptide receptor (Rattus norvegicus)
- test-description: In vitro binding affinity of [111In]DTPA-[Y4]-bombesin to bombesin receptor in the rat pancreatic acinar cell line, AR42J
measure-name: IC50 (nM)
State just the number; it will be interpreted in nM.

Recorded IC50, per entry:
CSCC[C@H](NC(=O)[C@H](CC(C)C)NC(=O)[C@H](Cc1c[nH]cn1)NC(=O)CNC(=O)[C@@H](NC(=O)[C@H](C)NC(=O)[C@H](Cc1c[nH]c2ccccc12)NC(=O)[C@H](CCC(N)=O)NC(=O)[C@@H](N)CCCCNC(=S)Nc1ccc2c(c1)C(=O)OC21c2ccc(O)cc2Oc2cc(O)ccc21)C(C)C)C(N)=O :: 5.7
CSCC[C@H](NC(=O)[C@H](CC(C)C)NC(=O)[C@H](Cc1c[nH]cn1)NC(=O)CNC(=O)[C@@H](NC(=O)[C@H](C)NC(=O)[C@H](Cc1c[nH]c2ccccc12)NC(=O)[C@H](CCC(N)=O)NC(=O)CNC(=O)[C@H](CO)NC(=O)CN)C(C)C)C(N)=O :: 7.6
CSCC[C@H](NC(=O)[C@H](CC(C)C)NC(=O)[C@H](Cc1c[nH]cn1)NC(=O)CNC(=O)[C@@H](NC(=O)[C@H](C)NC(=O)[C@H](Cc1c[nH]c2ccccc12)NC(=O)[C@H](CCC(N)=O)NC(=O)[C@H](CCCCNC(=O)CN(CCN(CCN(CC(=O)O)CC(=O)O)CC(=O)O)CC(=O)O)NC(=S)Nc1ccc2c(c1)C(=O)OC21c2ccc(O)cc2Oc2cc(O)ccc21)C(C)C)C(N)=O :: 20
CSCC[C@H](NC(=O)[C@H](CC(C)C)NC(=O)[C@H](Cc1c[nH]cn1)NC(=O)CNC(=O)[C@@H](NC(=O)[C@H](C)NC(=O)[C@H](Cc1c[nH]c2ccccc12)NC(=O)[C@H](CCC(N)=O)NC(=O)[C@H](CCCCN)NC(=O)CN(CCN(CCN(CC(=O)O)CC(=O)O)CC(=O)O)CC(=O)O)C(C)C)C(N)=O :: 410
CSCC[C@H](NC(=O)[C@H](CC(C)C)NC(=O)[C@H](Cc1c[nH]cn1)NC(=O)CNC(=O)[C@@H](NC(=O)[C@H](C)NC(=O)[C@H](Cc1c[nH]c2ccccc12)NC(=O)[C@H](CCC(N)=O)NC(=O)[C@H](CCCCN)NC(=S)Nc1ccc2c(c1)C(=O)OC21c2ccc(O)cc2Oc2cc(O)ccc21)C(C)C)C(N)=O :: 5.8
CSCC[C@H](NC(=O)[C@H](CC(C)C)NC(=O)[C@H](Cc1c[nH]cn1)NC(=O)CNC(=O)[C@@H](NC(=O)[C@H](C)NC(=O)[C@H](Cc1c[nH]c2ccccc12)NC(=O)[C@H](CCC(N)=O)NC(=O)[C@@H](N)CCCCNC(=O)CN(CCN(CCN(CC(=O)O)CC(=O)O)CC(=O)O)CC(=O)O)C(C)C)C(N)=O :: 4.8

Proceed to the following item.
Kindly note the recorded IC50 for `CSCC[C@H](NC(=O)[C@H](CC(C)C)NC(=O)[C@H](Cc1c[nH]cn1)NC(=O)CNC(=O)[C@@H](NC(=O)[C@H](C)NC(=O)[C@H](Cc1c[nH]c2ccccc12)NC(=O)[C@H](CCC(N)=O)NC(=S)Nc1ccc2c(c1)C(=O)OC21c2ccc(O)cc2Oc2cc(O)ccc21)C(C)C)C(N)=O` , which is 3.2

Reference source: ChEMBL document CHEMBL1136045
